# Test system: SK-MEL-28 melanoma
# PROCEDURE_DETAILS: NCI-60 one-dose screen, 48 h (100 = growth as untreated, 0 = no growth, -100 = all killed)
# EXPERIMENTAL_CONDITIONS: 10 µM unless noted
About 83,000 compounds went through this panel and 20% of them were active in at least one assay; those are over-represented in the sample as a whole.

COMPOUND	growth, %
COC(=O)CC[C@H](C)[C@H]1CC[C@H]2[C@@H]3CC[C@@H]4CC5(CC[C@]4(C)[C@H]3CC(=O)[C@]12C)Nc1ccccc1NC5=NC(C)(C)C (stereo partly drawn)	89.2
NC(=O)c1ccc(-c2c3ccccc3cc3c2ccc2ccccc23)cc1	60
N#Cc1ccc2c(c1)C(=O)c1c-2n(CCCN)c(=O)c2cc([N+](=O)[O-])ccc12	-100
O=C(O)c1cn(C2CC2)c2cc(N3CCN(Cc4ccc5ccccc5c4O)CC3)c(F)cc2c1=O	38.6
CCn1cc(C(=O)O)c(=O)c2cc(F)c(N3CCN(CC(=O)Nc4ccc(S(=O)(=O)Nc5nccc(C)n5)cc4)C(C)C3)c(F)c21 (stereo not drawn)	107
COc1ccc(C2CC(c3ccc(Nc4nc(Nc5ccccc5)nc(Nc5ccccc5)n4)cc3)=NN2C(C)=O)cc1 (stereo not drawn)	109
N=C(N)c1ccc(-c2ccc(-c3ccc(Cl)cc3Cl)s2)cc1	105
COc1cc(-c2csc(NC(=O)c3ccc(N4CCOCC4)c(C(F)(F)F)c3)n2)cc(OC)c1OC	36.6
